Test system: MOLT-4 leukemia
Experiment: NCI-60 one-dose screen, 48 h (100 = growth as untreated, 0 = no growth, -100 = all killed)
Conditions: 10 µM unless noted
Compounds without any hit were thinned out: in the full panel of roughly 83,000, 20% have a hit.
// returns not satisfied unless growth is strictly below 30%, in which case satisfied

stdin: hey, is growth for CN1CCN(c2ccc(NC(=O)Nc3ccc4c(ccn4-c4cccc(C(N)=O)n4)c3)cc2C(F)(F)F)CC1 lower than 30% or not?
stdout: satisfied

stdin: Does COc1ccc(Cn2cc3c(c2-c2ccccc2)CCCc2cnoc2-3)cc1[N+](=O)[O-] have growth strictly under 30%?
stdout: not satisfied

stdin: Record Clc1ccc(-c2csc(Nc3cccc(Nc4csc(-c5ccc(Cl)cc5)n4)c3)n2)cc1 : is its growth strictly below 30%?
stdout: not satisfied

stdin: Identify whether the compound CC(C)Sc1nc(NC2CC2)c(C#N)c(-c2ccccc2)n1 records growth below 30%.
stdout: not satisfied
